Recorded furin cleavage Z-score values for a group of sequences are listed next.
tested system: furin, P09958;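 further: purified furin at 1:10 enzyme:substrate in 50 mM HEPES pH 7.5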
Sequence (P09958 whole entry): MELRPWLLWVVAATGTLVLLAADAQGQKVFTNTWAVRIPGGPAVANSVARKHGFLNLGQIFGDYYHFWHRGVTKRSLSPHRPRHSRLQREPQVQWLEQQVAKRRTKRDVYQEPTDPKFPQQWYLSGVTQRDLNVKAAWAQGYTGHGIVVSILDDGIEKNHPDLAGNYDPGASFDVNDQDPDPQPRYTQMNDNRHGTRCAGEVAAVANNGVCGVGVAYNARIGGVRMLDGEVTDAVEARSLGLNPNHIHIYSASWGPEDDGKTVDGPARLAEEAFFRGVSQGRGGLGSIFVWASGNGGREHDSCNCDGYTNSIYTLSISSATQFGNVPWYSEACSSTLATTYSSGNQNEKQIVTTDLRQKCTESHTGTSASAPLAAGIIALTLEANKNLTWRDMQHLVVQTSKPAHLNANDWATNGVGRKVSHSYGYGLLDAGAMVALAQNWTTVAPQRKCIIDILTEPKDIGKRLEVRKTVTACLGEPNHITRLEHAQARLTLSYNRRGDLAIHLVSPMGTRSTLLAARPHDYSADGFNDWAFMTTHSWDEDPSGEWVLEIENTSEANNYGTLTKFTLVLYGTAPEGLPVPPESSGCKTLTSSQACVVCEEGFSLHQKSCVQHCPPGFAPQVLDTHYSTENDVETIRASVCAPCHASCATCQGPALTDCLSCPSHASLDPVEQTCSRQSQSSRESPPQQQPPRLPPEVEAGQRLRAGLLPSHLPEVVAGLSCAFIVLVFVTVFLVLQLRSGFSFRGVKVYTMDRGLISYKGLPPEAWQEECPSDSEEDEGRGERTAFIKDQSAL
experiment: furin cleavage Z-score vs untreated control; higher = more cleavage, active = 3.5 or more, inactive = 1 or less, 8 variable residues between constant flanks
condition set: 7.5 min
This is one part of the list. The hit rate among all sequences tested is not known here.
Format: numeric value only, no unit, no commentary.

GET /value?item= CARKFRDLLKAGNASASA [FS-1724] &field=furin cleavage Z-score returns -0.828

Entry CARMAREVAAAGNASASA [FS-1909] — recorded furin cleavage Z-score = 6.15

Lab book: furin cleavage Z-score of CAMEECSSHLAGNASASA [HC1737] noted as -0.244

Query CAGFADLMGYAGNASASA [HC225] yields furin cleavage Z-score of -1.18
